Biological target: CRBN-DDB1 (Homo sapiens, UniProt Q96SW2)
Sequence (Q96SW2 whole entry): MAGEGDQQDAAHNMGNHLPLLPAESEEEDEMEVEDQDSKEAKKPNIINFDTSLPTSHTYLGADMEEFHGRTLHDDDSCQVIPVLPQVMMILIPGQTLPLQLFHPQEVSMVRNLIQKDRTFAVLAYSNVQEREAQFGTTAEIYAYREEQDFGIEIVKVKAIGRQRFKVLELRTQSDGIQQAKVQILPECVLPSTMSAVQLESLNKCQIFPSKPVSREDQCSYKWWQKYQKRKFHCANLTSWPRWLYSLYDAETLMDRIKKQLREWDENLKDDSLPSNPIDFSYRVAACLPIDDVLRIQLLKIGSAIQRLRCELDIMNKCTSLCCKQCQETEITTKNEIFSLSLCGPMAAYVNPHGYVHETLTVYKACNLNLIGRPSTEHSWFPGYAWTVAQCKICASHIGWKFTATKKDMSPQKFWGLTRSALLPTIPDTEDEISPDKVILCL
Sequence (Q16531 whole entry partner): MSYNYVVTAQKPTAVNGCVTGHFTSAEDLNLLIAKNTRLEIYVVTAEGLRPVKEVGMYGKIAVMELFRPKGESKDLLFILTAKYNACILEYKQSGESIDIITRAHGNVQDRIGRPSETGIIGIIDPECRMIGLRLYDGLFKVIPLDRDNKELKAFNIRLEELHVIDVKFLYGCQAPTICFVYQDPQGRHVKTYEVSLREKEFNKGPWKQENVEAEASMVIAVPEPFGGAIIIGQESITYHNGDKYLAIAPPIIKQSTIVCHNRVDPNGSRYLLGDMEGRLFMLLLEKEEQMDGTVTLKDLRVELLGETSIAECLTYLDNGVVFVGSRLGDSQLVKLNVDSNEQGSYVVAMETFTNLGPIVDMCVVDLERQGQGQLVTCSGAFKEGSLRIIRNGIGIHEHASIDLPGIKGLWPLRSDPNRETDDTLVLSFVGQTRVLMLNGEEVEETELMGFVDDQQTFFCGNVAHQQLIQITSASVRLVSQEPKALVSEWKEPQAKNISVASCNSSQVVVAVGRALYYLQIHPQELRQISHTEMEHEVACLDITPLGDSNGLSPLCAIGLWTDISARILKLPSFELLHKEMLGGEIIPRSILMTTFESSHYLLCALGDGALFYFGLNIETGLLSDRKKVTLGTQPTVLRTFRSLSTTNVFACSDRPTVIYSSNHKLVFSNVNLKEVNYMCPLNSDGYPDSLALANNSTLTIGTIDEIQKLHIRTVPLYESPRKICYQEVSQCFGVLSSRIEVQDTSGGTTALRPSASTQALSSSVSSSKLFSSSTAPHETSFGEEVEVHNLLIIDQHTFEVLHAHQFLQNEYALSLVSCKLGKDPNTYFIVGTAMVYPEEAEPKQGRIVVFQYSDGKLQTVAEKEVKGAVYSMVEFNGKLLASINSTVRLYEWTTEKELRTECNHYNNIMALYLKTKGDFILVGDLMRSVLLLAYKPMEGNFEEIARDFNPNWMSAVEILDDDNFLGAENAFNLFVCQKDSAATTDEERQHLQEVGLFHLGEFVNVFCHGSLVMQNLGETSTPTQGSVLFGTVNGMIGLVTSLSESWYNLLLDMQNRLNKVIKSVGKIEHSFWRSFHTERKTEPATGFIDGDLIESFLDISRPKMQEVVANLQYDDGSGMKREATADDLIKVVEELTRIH
Test: Compound binding to CRBN by HTRF assay
Conditions: CRBN-DDB1 2.5 nM, Cy5-Thalidomide 100 nM probe; Ki from geometric mean of IC50 by Cheng-Prustoff transformation
pKi: −log10 of the molar value.
measured.quantity: pKi

Ask | Give reported pKi value for O=C1CCC(N2Cc3ccc(CNC(=O)OCc4cccc([N+](=O)[O-])c4)cc3C2=O)C(=O)N1 (stereo not drawn)
Reply | 6.00 to 7.00

Ask | Give reported pKi value for Cc1c(COC(=O)NCc2ccc3c(c2)C(=O)N(C2CCC(=O)NC2=O)C3)cccc1-c1ccccc1 (stereo not drawn)
Reply | ≥ 7.00

Ask | Give reported pKi value for CCC(COC(=O)NCc1ccc2c(c1)C(=O)N(C1CCC(=O)NC1=O)C2)c1ccccc1 (stereo not drawn)
Reply | 6.00 to 7.00

Ask | Give reported pKi value for CC(C)(c1ccc(COC(=O)NCc2ccc3c(c2)C(=O)N(C2CCC(=O)NC2=O)C3)cc1)C(F)(F)F (stereo not drawn)
Reply | ≥ 7.00

Ask | Give reported pKi value for O=C1CCC(N2Cc3ccc(CNC(=O)OCc4ccc(CN5CCOCC5)cc4)cc3C2=O)C(=O)N1 (stereo not drawn)
Reply | ≥ 7.00

Ask | Give reported pKi value for O=C1CCC(N2Cc3ccc(CNC(=O)OCCCc4ccccc4)cc3C2=O)C(=O)N1 (stereo not drawn)
Reply | 6.00 to 7.00

Ask | Give reported pKi value for O=C1CCC(N2Cc3ccc(CNC(=O)OCc4cccc(-c5ccccc5)c4)cc3C2=O)C(=O)N1 (stereo not drawn)
Reply | ≥ 7.00

Ask | Give reported pKi value for O=C1CCC(N2Cc3ccc(CNC(=O)OCc4ccc(C5CCCC5)cc4)cc3C2=O)C(=O)N1 (stereo not drawn)
Reply | ≥ 7.00

Ask | Give reported pKi value for O=C1CCC(N2Cc3ccc(CNC(=O)OCc4cccc(-c5ccc(Cl)cc5)c4)cc3C2=O)C(=O)N1 (stereo not drawn)
Reply | 6.00 to 7.00

Ask | Give reported pKi value for O=C1CCC(N2Cc3ccc(CNC(=O)OCc4ccc(CC(F)(F)F)cc4)cc3C2=O)C(=O)N1 (stereo not drawn)
Reply | ≥ 7.00

Ask | Give reported pKi value for O=C1CCC(N2Cc3ccc(COC(=O)NCc4ccc(OC5CCOCC5)nc4)cc3C2=O)C(=O)N1 (stereo not drawn)
Reply | 6.00 to 7.00

Ask | Give reported pKi value for O=C1CCC(N2Cc3ccc(CNC(=O)OCc4ccc(C#CC(F)(F)F)cc4)cc3C2=O)C(=O)N1 (stereo not drawn)
Reply | 6.00 to 7.00

Ask | Give reported pKi value for O=C1CCC(N2Cc3ccc(CNC(=O)OCc4cccc(-c5ccc(F)cc5)n4)cc3C2=O)C(=O)N1 (stereo not drawn)
Reply | 6.00 to 7.00

Ask | Give reported pKi value for O=C1CCC(N2Cc3ccc(CNC(=O)OCc4ccc(OCC(F)(F)F)nc4)cc3C2=O)C(=O)N1 (stereo not drawn)
Reply | ≥ 7.00

Ask | Give reported pKi value for O=C1CCC(N2Cc3ccc(CNC(=O)OCc4ccnc(-c5ccc(F)cc5)c4)cc3C2=O)C(=O)N1 (stereo not drawn)
Reply | 6.00 to 7.00
